Experiment: Components of the Cytosolic LPS Sensing Pathway: Gene Identification via Genome-wide siRNA Screen
Conditions: RAW264.7 macrophages, IL-1a HTRF, actives lie on both sides, screened at 100 nM (by protocol), cells primed 5 h with Pam3CSK4 first
About 3,700 (7%) of roughly 53,000 sequences were called active.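 Rule for the calls: active = gene knockdowns whose robust z-score for IL-1 alpha signal is at least 2 or at most -2, so actives lie on both sides; inactive = the rest.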 This excerpt belongs to a sample that is enriched for actives.
Pick one and only one: YES for active, NO for inactive

Worked set:
- CCAGUUAAACACAUUAGCCTT against Mxra8: NO
- GGAGAAAAUCAAACCAGAUTT against Ddx19b: NO
- GAACUUUGCCAUUGAUUUGTT against Ndufs6: NO
- GGAAGACAGGGACAAUACCTT against Car15: YES
- CCAUUUACCCAUGCGGCUATT against Creb3l2: NO

Just curious, what result did GGGCAAACCUUCUAAACUATT against Ttpa get here?
NO

Just curious, what result did AAGCUUCAACAUCAGUUUGTT against Olfr1392 get here?
NO

Just curious, what result did GGUUAUAAAACUAUGGAACTT against Map2k5 get here?
NO

Just curious, what result did GGGUGAAAUCUAUCUCCAUTT against Agfg1 get here?
NO

Just curious, what result did GCAAUACCUCAGAAAAAGUTT against Tmem165 get here?
YES

Just curious, what result did GGGUACAGACGAUGUUUGATT against Unc45b get here?
NO
